Value source: PubChem BioAssay (NCI)

Test system: MOLT-4 leukemia
Experiment: NCI-60 one-dose screen, 48 h
Settings: 10 µM unless noted
The panel holds about 83,000 compounds, 20% with a hit somewhere; the sample as a whole holds those more often. Active and inactive are the calls of the source. Rule for the calls: active = growth percent below 10; inactive = the rest.
Outcome codes: y for active, n for inactive

- molecule: "Oc1ccccc1-c1nc2c3ccccc3c3ccccc3c2o1"
  measured-on: "MOLT-4 leukemia"
  answer-label: "n"
- molecule: "COC(=O)c1ccc2c(c1)n(Cc1ccc3ccccc3c1)c[n+]2Cc1ccc2ccccc2c1"
  measured-on: "MOLT-4 leukemia"
  answer-label: "n"
- molecule: "Nc1cccc(C(=O)Nc2ccc3c(O)c(N=Nc4ccc(N=Nc5ccc(S(=O)(=O)O)cc5)cc4)c(S(=O)(=O)O)cc3c2)c1"
  measured-on: "MOLT-4 leukemia"
  answer-label: "n"
- molecule: "Nc1ccc(C2=NN(C(=O)c3cc(-c4ccc(Cl)cc4)nc4ccccc34)C(c3ccccc3)C2)cc1 (centres undefined)"
  measured-on: "MOLT-4 leukemia"
  answer-label: "n"
- molecule: "CC1(c2ccccc2Cl)NC(=O)NC1=O (centres undefined)"
  measured-on: "MOLT-4 leukemia"
  answer-label: "n"
- molecule: "C=C(C)[C@@H]1CC[C@]2(C(=O)N=C=S)CC[C@]3(C)[C@H](CC[C@@H]4[C@@]5(C)CCC(=O)C(C)(C)[C@@H]5CC[C@]43C)[C@@H]12"
  measured-on: "MOLT-4 leukemia"
  answer-label: "n"
- molecule: "COc1ccc(/C=C(/C(=O)N2CCN(Cc3ccccc3)CC2)c2cc(OC)c(OC)c(OC)c2)cc1O"
  measured-on: "MOLT-4 leukemia"
  answer-label: "n"
- molecule: "Cc1cccc2nc3c(n12)C(=O)C(=O)c1ccccc1-3"
  measured-on: "MOLT-4 leukemia"
  answer-label: "n"
- molecule: "C#C[C@@]1(O)[C@@H](CO)O[C@@H](n2cc(Br)c3c(N)ncnc32)[C@@H]1O"
  measured-on: "MOLT-4 leukemia"
  answer-label: "y"

###

Test system: NCI-H460 lung
Assay: NCI-60 one-dose screen, 48 h
Conditions: 10 µM unless noted
This is part of a sample that, as a whole, favours compounds with a hit. Of some 83,000 tested, about 20% had one in any assay. Calls of active or inactive are those of the source. Rule for the calls: active = growth percent below 10; inactive = the rest.
Outcome codes: 1 (yes) (active), 0 (no) (inactive)

- compound: "O=C1NN(c2ccccc2)C(c2ccc(Cl)cc2)N2CCC[C@H]12 (stereo partly drawn)"
  measured-on: "NCI-H460 lung"
  answer-label: "0 (no)"
- compound: "COc1ccc2[nH]c(-c3ccccc3)c(C=C(C#N)C#N)c2c1"
  measured-on: "NCI-H460 lung"
  answer-label: "0 (no)"
- compound: "Nc1cc(N)c(S(=O)(=O)O)cc1N=Nc1cc([N+](=O)[O-])ccc1O"
  measured-on: "NCI-H460 lung"
  answer-label: "0 (no)"
- compound: "CC(C)NS(=O)(=O)c1cccc(-c2ccc3c(=O)n(CCCN)c4c(c3c2)C(=O)c2ccccc2-4)c1"
  measured-on: "NCI-H460 lung"
  answer-label: "0 (no)"
- compound: "Nc1c(C(=O)Nc2ccccc2Cl)sc2nc3c(cc12)CN(Cc1ccccc1)CC3"
  measured-on: "NCI-H460 lung"
  answer-label: "0 (no)"
- compound: "O=C(CSC(=S)N1CCCCC1)Nc1ccccc1"
  measured-on: "NCI-H460 lung"
  answer-label: "0 (no)"
- compound: "Cc1cc(C)nc(NS(=O)(=O)c2ccc(Nc3ccc4c5c(n(CCCN(C)C)c(=O)c4c3)-c3ccccc3C5=O)cc2)n1"
  measured-on: "NCI-H460 lung"
  answer-label: "0 (no)"
- compound: "Cc1nc2sc(C(=O)Nc3ccccc3Cl)c(N)c2cc1C(C)O (stereo not drawn)"
  measured-on: "NCI-H460 lung"
  answer-label: "0 (no)"
- compound: "COc1cc(-c2nn(-c3ccc(Br)cc3)cc2CO)ccc1O"
  measured-on: "NCI-H460 lung"
  answer-label: "0 (no)"
- compound: "N#Cc1ccc(N2Cc3cc(Cl)ccc3OC3=C2C(=O)N(Cc2ccccc2)C3=O)cc1"
  measured-on: "NCI-H460 lung"
  answer-label: "0 (no)"
- compound: "CCOC(=O)NCCc1nc2c([nH]1)c(=O)n(C)c(=O)n2C"
  measured-on: "NCI-H460 lung"
  answer-label: "0 (no)"
- compound: "COc1ccc(OCC(=O)OC(C)C)cc1"
  measured-on: "NCI-H460 lung"
  answer-label: "0 (no)"
- compound: "C=C1C(=O)O[C@H]2[C@H]1CC/C(COC(=O)CCCCC(=O)OC/C1=C/CC[C@@]3(C)O[C@H]3[C@H]3OC(=O)C(=C)[C@@H]3CC1)=C\\CC[C@@]1(C)O[C@@H]21"
  measured-on: "NCI-H460 lung"
  answer-label: "0 (no)"
- compound: "CCOC(=O)c1c(C)nc2c(c1N)/C(=C/c1cccs1)C(=O)N2c1ccc(OC)cc1"
  measured-on: "NCI-H460 lung"
  answer-label: "0 (no)"
- compound: "COc1ccc2nc(-c3ccc(OC)c(OC)c3)cc(-c3nnc(SCC(=O)Nc4ccc(C(C)=O)cc4)o3)c2c1"
  measured-on: "NCI-H460 lung"
  answer-label: "0 (no)"
- compound: "COc1cc(NC(=O)COc2cc(C)nc3ccc(OC)cc23)cc(OC)c1"
  measured-on: "NCI-H460 lung"
  answer-label: "0 (no)"
- compound: "CN(C)C1=NCCN1"
  measured-on: "NCI-H460 lung"
  answer-label: "0 (no)"
- compound: "N#Cc1c(-c2ccc(F)cc2)c(C#N)c2c(C#N)c(N)nn2c1N"
  measured-on: "NCI-H460 lung"
  answer-label: "0 (no)"
- compound: "C=C1C(=O)O[C@H]2[C@H]1CC/C(C=Nc1c(N)cc(F)cc1Br)=C\\CC[C@@]1(C)O[C@@H]21"
  measured-on: "NCI-H460 lung"
  answer-label: "0 (no)"
- compound: "CCn1cc(C(=O)O)c(=O)c2cc(F)c(N3CCN(CC(=O)Nc4ccc(/C(C)=N/OC)cc4)CC3)cc21"
  measured-on: "NCI-H460 lung"
  answer-label: "0 (no)"
- compound: "Oc1ccc(CNNc2ccnc3c(O)cccc23)c2cccnc12"
  measured-on: "NCI-H460 lung"
  answer-label: "0 (no)"
- compound: "COc1ccc(/C=C(/C(=O)N2CCN(Cc3ccccc3)CC2)c2cc(OC)c(OC)c(OC)c2)cc1O"
  measured-on: "NCI-H460 lung"
  answer-label: "0 (no)"
- compound: "COc1cc(C2CC(c3ccc(Nc4nc(NCCO)nc(NCCO)n4)cc3)=NN2c2cc(Cl)cc(Cl)c2)cc(OC)c1OC (stereo not drawn)"
  measured-on: "NCI-H460 lung"
  answer-label: "1 (yes)"
- compound: "CC1=C(CCCOC(=O)NCCCl)C2=C(C)C3(CC3)[C@@](C)(O)C(=O)C2=C1"
  measured-on: "NCI-H460 lung"
  answer-label: "1 (yes)"
- compound: "CCN(CC)c1ccc2c(c1)Oc1nc(N)c(C#N)c(N)c1C2Sc1ccc(OC)cc1 (stereo not drawn)"
  measured-on: "NCI-H460 lung"
  answer-label: "1 (yes)"
- compound: "C#CCN1C(=O)c2ccccc2N(CC#C)C12CCN(Cc1cn(CC(=O)Nc3ccccc3C(N)=O)nn1)CC2"
  measured-on: "NCI-H460 lung"
  answer-label: "0 (no)"
- compound: "Cc1cccc(C)c1NCc1nnc(-c2ccc(O)cc2)o1"
  measured-on: "NCI-H460 lung"
  answer-label: "0 (no)"
- compound: "CC(C)(C)CC(C)(C)Cc1ccc(OCCOCC[N+](C)(C)Cc2ccccc2)cc1"
  measured-on: "NCI-H460 lung"
  answer-label: "0 (no)"
- compound: "CC(=O)[C@@H]1CC[C@]2(C(=O)O)CC[C@]3(C)[C@H](CC[C@@H]4[C@@]5(C)Cc6c([nH]c7ccccc67)C(C)(C)[C@@H]5CC[C@]43C)[C@@H]12"
  measured-on: "NCI-H460 lung"
  answer-label: "0 (no)"
- compound: "O=C1NC(c2ccc(F)cc2)N=C2C(c3ccccc3)=NOC12 (stereo not drawn)"
  measured-on: "NCI-H460 lung"
  answer-label: "0 (no)"
- compound: "Cn1nc(C(F)(F)F)c(-c2cc(C(F)(F)F)cc(C(F)(F)F)c2)c1-c1ccc(OCc2ccc(Cl)cc2)cc1O"
  measured-on: "NCI-H460 lung"
  answer-label: "1 (yes)"
- compound: "COc1cc(NC(=O)c2cc(O)c(C/C=C(\\C)CCC=C(C)C)c(O)c2)cc2c1O[C@]1(C)CC[C@@H](O)C(C)(C)[C@H]1C2"
  measured-on: "NCI-H460 lung"
  answer-label: "0 (no)"
- compound: "COc1ccc(-c2[nH]c3ccccc3c2C=C(C#N)C#N)cc1"
  measured-on: "NCI-H460 lung"
  answer-label: "1 (yes)"
